Biological target: SIRT1 (Homo sapiens, UniProt Q96EB6)
Test: SIRT1 mass spectrometry assay (screening for activation); also: test concentration or dose not given here
Assay type: biochemical
Settings: activation of SIRT1, mass spectrometry
MEASURED PROPERTY: FOLD ACTIVATION MS

Record excerpt, results attached:
COc1cc(C(=O)Nc2ccccc2-c2cc3ccccc3[nH]2)cc(OC)c1OC ... B (Fold Activation<250%)
COc1ccc(C(=O)Nc2sccc2-c2nc3ccccc3s2)cc1OC ... B (Fold Activation<250%)
COc1ccc(C(=O)Nc2cccc(-c3csc(-c4ccccc4)n3)c2)cc1OC ... B (Fold Activation<250%)
COc1ccc(C(=O)Nc2cccc(-c3nc4ncccc4s3)c2)c(OC)c1 ... B (Fold Activation<250%)
CN(C)c1cccc(C(=O)Nc2cc(CN3CCNCC3)cc(-c3nc4ncccc4o3)c2)c1 ... A (Fold activation>250%)

Turning now to a further record.
Q: Read the entry `O=C(Nc1cccc(-c2nc3ccncc3s2)c1)c1cccs1` and write its reported FOLD ACTIVATION MS.
Result: B (Fold Activation<250%)

###

Biological target: SIRT1 (Homo sapiens)
Sequence (Q96EB6 1-747): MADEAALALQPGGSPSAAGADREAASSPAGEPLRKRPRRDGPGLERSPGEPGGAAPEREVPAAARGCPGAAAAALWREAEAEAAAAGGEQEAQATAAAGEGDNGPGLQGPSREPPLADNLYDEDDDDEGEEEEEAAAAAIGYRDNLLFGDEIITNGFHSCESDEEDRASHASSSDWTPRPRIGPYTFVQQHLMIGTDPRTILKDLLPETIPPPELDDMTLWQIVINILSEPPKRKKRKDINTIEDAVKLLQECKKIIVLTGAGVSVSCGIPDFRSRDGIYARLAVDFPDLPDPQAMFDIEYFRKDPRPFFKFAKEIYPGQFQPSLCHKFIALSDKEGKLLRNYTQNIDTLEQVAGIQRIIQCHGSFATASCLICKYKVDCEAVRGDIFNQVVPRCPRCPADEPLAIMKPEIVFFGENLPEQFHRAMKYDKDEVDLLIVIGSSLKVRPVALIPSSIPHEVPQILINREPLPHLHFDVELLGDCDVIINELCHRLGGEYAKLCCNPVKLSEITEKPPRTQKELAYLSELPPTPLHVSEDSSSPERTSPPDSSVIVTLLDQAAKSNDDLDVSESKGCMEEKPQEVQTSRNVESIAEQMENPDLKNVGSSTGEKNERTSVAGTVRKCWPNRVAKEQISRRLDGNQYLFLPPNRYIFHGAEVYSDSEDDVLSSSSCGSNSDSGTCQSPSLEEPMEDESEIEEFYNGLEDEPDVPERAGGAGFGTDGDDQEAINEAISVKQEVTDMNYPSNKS
Assay: SIRT1 mass spectrometry assay (screening for activation)
Format: biochemical
Conditions: activation of SIRT1, mass spectrometry
MEASURED PROPERTY: FOLD ACTIVATION MS

Record excerpt, results attached:
O=S(=O)(Nc1cccc(-c2nc3ccncc3s2)c1)c1ccc(OC(F)(F)F)cc1 ... B (Fold Activation<250%)
COc1ccc(C(=O)Nc2cccc(-c3nc4cccnc4[nH]3)c2)cc1OC ... A (Fold activation>250%)
COc1cc(SC)ccc1C(=O)Nc1cccc(-c2nncn2C)c1 ... B (Fold Activation<250%)
CN(C)c1cccc(C(=O)Nc2cc(-c3nc4ncccc4o3)ccn2)c1 ... B (Fold Activation<250%)
COc1cc(C)ccc1C(=O)Nc1ccc(-c2cc3cccnc3o2)cc1 ... B (Fold Activation<250%)

Q: Please report FOLD ACTIVATION MS with SIRT1 (Homo sapiens) for item `CN(C)c1cccc(C(=O)Nc2cccc(-c3nc4ncccc4s3)c2)c1` .
Result: B (Fold Activation<250%)

Q: Please report FOLD ACTIVATION MS with SIRT1 (Homo sapiens) for item `COc1ccc(C(=O)Nc2cccc(-c3nc4cnccc4s3)c2)c(OC)c1` .
Result: B (Fold Activation<250%)

Q: Please report FOLD ACTIVATION MS with SIRT1 (Homo sapiens) for item `COc1cc(C(=O)Nc2ccccc2-c2cn3c(CN(C)C)csc3n2)cc(OC)c1OC` .
Result: A (Fold activation>250%)
